target_under_test: hERG (KCNH2) (Homo sapiens, UniProt Q12809)
Sequence (Q12809 whole entry): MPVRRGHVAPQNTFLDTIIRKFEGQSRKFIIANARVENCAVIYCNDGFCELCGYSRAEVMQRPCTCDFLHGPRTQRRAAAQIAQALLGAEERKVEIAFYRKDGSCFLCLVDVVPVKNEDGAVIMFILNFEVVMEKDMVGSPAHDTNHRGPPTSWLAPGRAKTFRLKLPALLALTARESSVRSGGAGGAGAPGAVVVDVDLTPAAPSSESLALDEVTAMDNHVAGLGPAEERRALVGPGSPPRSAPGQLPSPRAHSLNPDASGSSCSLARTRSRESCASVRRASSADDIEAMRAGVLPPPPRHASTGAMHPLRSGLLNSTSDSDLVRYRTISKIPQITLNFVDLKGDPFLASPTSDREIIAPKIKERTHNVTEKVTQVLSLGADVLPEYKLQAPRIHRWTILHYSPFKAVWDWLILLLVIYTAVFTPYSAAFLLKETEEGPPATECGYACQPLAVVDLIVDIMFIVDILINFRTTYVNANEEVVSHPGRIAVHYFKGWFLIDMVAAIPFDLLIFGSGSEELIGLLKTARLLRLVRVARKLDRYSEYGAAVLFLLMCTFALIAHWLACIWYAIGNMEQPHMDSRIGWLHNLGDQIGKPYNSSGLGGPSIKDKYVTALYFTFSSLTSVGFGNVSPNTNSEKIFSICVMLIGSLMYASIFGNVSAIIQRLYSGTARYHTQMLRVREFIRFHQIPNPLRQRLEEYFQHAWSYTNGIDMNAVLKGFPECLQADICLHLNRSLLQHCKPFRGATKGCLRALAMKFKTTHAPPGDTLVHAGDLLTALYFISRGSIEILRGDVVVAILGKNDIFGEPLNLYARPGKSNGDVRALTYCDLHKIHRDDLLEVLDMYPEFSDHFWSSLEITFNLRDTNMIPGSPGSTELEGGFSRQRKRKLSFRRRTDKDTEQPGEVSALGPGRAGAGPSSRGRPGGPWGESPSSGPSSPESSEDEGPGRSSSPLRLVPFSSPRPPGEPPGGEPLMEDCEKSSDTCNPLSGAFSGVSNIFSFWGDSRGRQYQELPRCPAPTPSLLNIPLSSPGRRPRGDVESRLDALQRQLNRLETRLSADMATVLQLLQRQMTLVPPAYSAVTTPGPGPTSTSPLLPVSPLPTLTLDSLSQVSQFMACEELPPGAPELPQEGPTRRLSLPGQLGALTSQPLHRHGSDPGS
assay_comment: Inhibition of hERG at 10 uM relative to control
Assay type: toxicity
Each entry below carries its reported inhibition at 10 µM.

compound | inhibition at 10 µM, %
Cc1oc(-c2cccc(C(F)(F)F)c2)cc1C(=O)Nc1nc(CC(C)N2CCCC2)ns1 (stereo unspecified) | 93.5
Cc1oc(-c2cc(F)cc(C(F)(F)F)c2)cc1C(=O)Nc1nc(CN2CCOCC2)ns1 | 16.4
Cc1oc(-c2cccc(C(F)(F)F)c2)cc1C(=O)Nc1nc(CN2CCOCC2)ns1 | 20.7
Cc1oc(-c2cc(C(F)(F)F)ccc2Cl)cc1C(=O)Nc1nc(CN2CCOCC2)ns1 | 8
Cc1oc(-c2cccc(C(F)(F)F)c2)cc1C(=O)Nc1nc(CN2CCCCC2)ns1 | 95.5
Cc1oc(-c2cc(C(F)(F)F)ccc2F)cc1C(=O)Nc1nc(CN2CCOCC2)ns1 | 21
